Test system: HOP-92
ASSAY_TEXT: NCI tumour cell line growth inhibition, 48 h
The source made the active and inactive calls. Rule as the data show it: active = GI50 up to about 1.1 µM and inactive = higher.
Permitted responses: True = active, False = inactive

Tell me the recorded outcome of this test for "CCCCCCCC(=O)OC[C@@H](C[As](=O)(O)O)OC(=O)CCCCCCC" .
False

Ok, now CCOC(=O)C1(C)CCCCC(=O)N1 (centres undefined)
False

Also check "O=S1(=O)NN=C(NCc2ccc(F)cc2)c2ccccc21"
False

Another molecule: "CC1=NN(c2ccccc2)C(=O)C1=C1SCCS1"
False

"CN(c1ccccc1)c1c(Cl)c(=O)oc2c1ccc1occc12" , same question.
False

Same thing, different molecule: NC1=NN(c2ccccc2)C(=O)C1C(=O)C(=O)Nc1ccc(Cl)cc1 (centres undefined)
False

Try the molecule "CCCN(CCC)C(=S)N/N=C/c1cccc(C)n1"
True

Now this one: "CC(C)(/C=N\O)NO"
False

And for CCc1cccc(C(C)CC)c1NC(=O)C(=O)Cc1nc2ccccc2o1 (centres undefined) ?
False

What about this molecule? CC(=O)c1ccc2c(c1)CC1(C2)Cc2cc3c(c(C(=O)O)c2C1)CCC3 (centres undefined)
False

And then "CN(NC(=O)c1ccc(Cl)cc1)C1=NCCCCN1" , what is it?
False
